# System: OVCAR-4 ovarian
# Assay Details: NCI-60 one-dose screen, 48 h (100 = growth as untreated, 0 = no growth, -100 = all killed)
# Stated Conditions: 10 µM unless noted
The panel holds about 83,000 compounds, 20% with a hit somewhere; the sample as a whole holds those more often.
Yes if growth is below 30%. No if not; exact matches included in No.

A record lists O=C1c2ccccc2C(=O)c2c1oc1ccc3ccccc3c21 . Is its growth below 30%?
No

Would you kindly repeat that for CCc1ccc2c(c1)N(CCO)C1=C(C(=O)OC1)C2c1cccc(Br)c1 (stereo not given) ?
No

Would you kindly repeat that for COc1ccc(Nc2ncnc3c2sc2nc(C)cc(C)c23)cc1 ?
No

Would you kindly repeat that for O=C(Nc1cccc(Cl)c1)Nc1cc(C(F)(F)F)ccc1Cl ?
Yes

Would you kindly repeat that for CN(C)c1ccc(Nc2c3ccccc3nc3ccccc23)cc1 ?
Yes

Would you kindly repeat that for Cc1ccc(NC(=O)c2nc(S(C)(=O)=O)oc2-c2ccc(F)cc2)cc1Nc1ccc2ncn(C)c(=O)c2c1 ?
No

====

# System: HOP-62 NSCLC
# Assay Details: NCI-60 one-dose screen, 48 h (100 = growth as untreated, 0 = no growth, -100 = all killed)
# Stated Conditions: 10 µM unless noted
The panel holds about 83,000 compounds, 20% with a hit somewhere; the sample as a whole holds those more often.
Documented growth across a set of molecules
// return numeric value only (unit: %, not printed)

>  <Molecule>
C=CCN(CCOC(=O)c1ccc([N+](=O)[O-])cc1)CCOC(=O)c1ccc([N+](=O)[O-])cc1

>  <growth / %>
91.9

$$$$
>  <Molecule>
CCCCCCCCCCCC1=NC(C)(C)CN1C(C)(C)CO

>  <growth / %>
60.4

$$$$
>  <Molecule>
CCN(CC)CCCC(C)Nc1cnc(C(=O)Nc2ccc(Cl)c3cccnc23)cn1 (stereo unspecified)

>  <growth / %>
43

$$$$
>  <Molecule>
CNCc1ccccc1CN(CC(=O)Nc1ccc2c(c1)CC1(C2)C(=O)Nc2ncccc21)C(=O)C(C)(C)C (stereo unspecified)

>  <growth / %>
102

$$$$

Returns the measured growth for the input molecule. Input: CCOC(=O)c1ccc(NC(=O)NC2=NCCS2)cc1
35.7

Would you kindly repeat that for NC(N)=N/N=C\c1ccc(OCc2ccccc2)cc1 ?
62.8

Would you kindly repeat that for CCCCCCCCCCCCCC[N+](C)(C)CCCCCCCCCCCCCC ?
86.2

Would you kindly repeat that for NC(=Nc1ccccc1)SCCCSC(N)=Nc1ccccc1 ?
96.5

Would you kindly repeat that for O=S(=O)(NCC[C@@H]1C[C@H]1c1ccc2ccccc2c1)c1ccc(C(F)(F)F)cc1 ?
105

Would you kindly repeat that for O=C(O)Cn1ccc2ccccc21 ?
79.9

Would you kindly repeat that for CC(=O)c1cccc(Nc2ncnc3ccc(NC(=O)c4ccco4)cc23)c1 ?
113

====

# Test system: A498 renal
# Assay Details: NCI-60 one-dose screen, 48 h
# Stated Conditions: 10 µM unless noted
The panel holds about 83,000 compounds, 20% with a hit somewhere; the sample as a whole holds those more often. Activity calls are given as the source filed them. How the source made its calls: active means growth percent below 10; inactive means the rest.
Outcome field: choose from active, inactive

Use these answered entries as a reference point.
>  <Compound>
COc1ccc(/C=C/C(=O)c2ccc(NC(=O)CSc3nnc(-c4ccc(OC)cc4)n3-c3ccccc3)cc2)cc1

>  <Assigned Label>
inactive

$$$$
>  <Compound>
Cc1ccc(NC(=O)c2nc(S(C)(=O)=O)oc2-c2ccc(F)cc2)cc1Nc1ccc2ncn(C)c(=O)c2c1

>  <Assigned Label>
inactive

$$$$
>  <Compound>
COc1ccc2[nH]cc(/C=C3\C(=O)Nc4ccccc43)c2c1

>  <Assigned Label>
inactive

$$$$
>  <Compound>
Cc1cc(NC(=O)c2ccc(N)cc2)ccc1N=Nc1ccc2cc(S(=O)(=O)O)cc(S(=O)(=O)O)c2c1

>  <Assigned Label>
inactive

$$$$
>  <Compound>
O=[N+]([O-])c1ccccc1CN1CCCCC1

>  <Assigned Label>
inactive

$$$$

Record lookup: outcome of this test for Oc1ccc(CCCCCCc2ccc(O)cc2)cc1 ?
inactive

Would you kindly repeat that for Nc1c(C(=O)Nc2cccc(Cl)c2)sc2ncc(Br)cc12 ?
inactive

Would you kindly repeat that for CCN(CC)CCNc1c(C)cc(CO)c(Cl)c1C ?
inactive

Would you kindly repeat that for COc1cc2c(cc1OC)C(=O)OC2 ?
inactive

Would you kindly repeat that for CCOC(=O)c1ccc(NCCC(=O)O)cc1 ?
inactive

Would you kindly repeat that for C#CCNC(=S)N/N=C(\C)c1ccccn1 ?
inactive

Would you kindly repeat that for COc1ccc(NC(=O)c2ccc(C(F)(F)F)nc2Nc2ccc(Cl)cc2C)cc1Cl ?
inactive
